IC50 reference
tested on: HCT-116; test: Antiproliferative activity against human HCT-116 cells; format: functional, cell-based
testReadout: IC50 (µM)

• O=C(c1c[nH]c2ccccc12)[C@@H]1[C@@H](c2ccc(Cl)cc2Cl)[C@@H]2CSCN2[C@@]12C(=O)Nc1ccccc12 = 9
• O=C(c1c[nH]c2ccccc12)[C@@H]1[C@@H](c2ccc(C(F)(F)F)cc2)[C@@H]2CSCN2[C@@]12C(=O)Nc1ccccc12 = 7

----------
tested on: NIH3T3; assay: Anticancer activity against mouse 3T3 cells measured after 48 hrs by MTT assay; assay type: functional, cell-based; conditions: NIH3T3, 48 h
testReadout: IC50 (µM)

- O=C1/C(=C/c2cccc([N+](=O)[O-])c2)CCC[C@]12[C@H]1CCCN1[C@]1(C(=O)Nc3ccccc31)[C@H]2c1cccc([N+](=O)[O-])c1: 19.1
